Assay: in vitro
Settings: human, THLE-2 cells
Description: Antiproliferative activity against human THLE-2 cells assessed as inhibition of cell growth incubated for 72 hrs by CCK-8 assay
Documented IC50 at 72 h across a set of compounds
Output spec: scalar in µM, unitless text.

>  <smiles_repr>
Cc1ccc(-c2cc3[nH]cc(C(=O)N4CCNCC4)c3cc2-c2ccc(C#N)cc2)cc1

>  <unit_label>
µM

>  <IC50 at 72 h>
19.1

$$$$
>  <smiles_repr>
CCc1ccc(-c2cc3[nH]cc(C(=O)N4CCC(N)CC4)c3cc2-c2ccc(C#N)cc2)cc1

>  <unit_label>
µM

>  <IC50 at 72 h>
29.6

$$$$
>  <smiles_repr>
Cc1ccc(-c2cc3[nH]cc(C(=O)NCC4CCNCC4)c3cc2-c2ccc(C#N)cc2)cc1

>  <unit_label>
µM

>  <IC50 at 72 h>
16.1

$$$$
>  <smiles_repr>
Cc1ccc(-c2cc3c(cc2-c2ccc(C#N)cc2)c(C(=O)N2CCC(N)CC2)cn3Cc2cccc(C#N)c2)cc1

>  <unit_label>
µM

>  <IC50 at 72 h>
5.8

$$$$
>  <smiles_repr>
Cc1cc(C)cc(-c2cc3[nH]cc(C(=O)N4CCC(N)CC4)c3cc2-c2ccc(C#N)cc2)c1

>  <unit_label>
µM

>  <IC50 at 72 h>
11.8

$$$$

Lab note: next compound to report on.
### Prompt Identify IC50 at 72 h associated with the compound `Cc1ccc(-c2cc3[nH]cc(C(=O)N4CCC(N)CC4)c3cc2-c2ccc(C#N)cc2)cc1C`
### Response 20.8

* * *

Assay: Intrinsic clearance in human liver microsomes measured upto 60 mins in presence of NADPH by LC/MS/MS analysis
Assay type: ADME, Microsome
Details: read-out: CLH
Documented microsomal CLint across a set of compounds
Output spec: scalar in µL/min/mg, unitless text.

>  <smiles_repr>
Cc1ccc(-c2cc3c(cc2-c2ccc(C#N)cc2)c(C(=O)N2CCC(N)CC2)cn3S(=O)(=O)c2ccc(F)cc2)cc1

>  <reported_measurement>
9.6

$$$$

Lab note: next compound to report on.
### Prompt Identify microsomal CLint associated with the compound `Cc1ccc(-c2cc3occ(CN4CCC[C@H](N)C4)c3cc2-c2ccc(C#N)cc2)cc1`
### Response 24.5

* * *

Test: Volume of distribution in steady state in Sprague-Dawley rat at 3 mg/kg,iv by LC-MS/MS analysis
Type: ADME, organism-based
Details: in vivo, read-out: Vdss
quantity: Vd (L/kg)
Output spec: scalar in L/kg, unitless text.

### Prompt Identify Vd associated with the molecule `Cc1ccc(-c2cc3c(cc2-c2ccc(C#N)cc2)c(C(=O)N2CCC(N)CC2)cn3S(=O)(=O)c2ccc(F)cc2)cc1`
### Response 17.4

* * *

Test system: HeLa
Test: Antiproliferative activity against human HeLa cells assessed as inhibition of cell growth incubated for 72 hrs by CCK-8 assay
Type: functional, cell-based
Documented IC50 across a set of compounds
Output spec: scalar in µM, unitless text.

Examples from the recorded data:
>  <smiles_repr>
Cc1ccc(-c2cc3c(cc2-c2ccc(C#N)cc2)c(C(=O)N2CCC(N)CC2)cn3S(=O)(=O)c2ccc(F)cc2)cc1

>  <assay_target>
HeLa

>  <IC50 [µM]>
3.3

$$$$
>  <smiles_repr>
Cc1ccc(-c2cc3occ(CN4CCC[C@H](N)C4)c3cc2-c2ccc(C#N)cc2)cc1

>  <assay_target>
HeLa

>  <IC50 [µM]>
10.2

$$$$
>  <smiles_repr>
Cc1ccc(-c2cc3c(cc2-c2ccc(C#N)cc2)c(C(=O)N2CCC(N)CC2)cn3C)cc1

>  <assay_target>
HeLa

>  <IC50 [µM]>
7.1

$$$$

Lab note: next compound to report on.
### Prompt For HeLa, give IC50 of the listed compound: `Cc1ccc(-c2cc3[nH]cc(C(=O)N4CCC(N)CC4)c3cc2-c2ccc(C#N)c(F)c2)cc1`
### Response 13.4

* * *

Test system: A549
Assay: cells
Conditions: Homo sapiens, A549, 72 h
Description: Antiproliferative activity against human A549 cells assessed as inhibition of cell growth incubated for 72 hrs by CCK-8 assay
Documented pIC50 across a set of compounds
// returns pIC50 (minus log10 of molar concentration), number only

>  <smiles_repr>
Cc1ccc(-c2cc3c(cc2-c2ccc(C#N)cc2)c(C(=O)N2CCC(N)CC2)cn3C)cc1

>  <pIC50>
5.26

$$$$

### Prompt For A549, give pIC50 of the listed compound: `Cc1ccc(-c2cc3[nH]cc(C(=O)N4CCC(N)CC4)c3cc2-c2ccc(C#N)cc2)cc1C`
### Response 5.37

### Prompt For A549, give pIC50 of the listed compound: `Cc1ccc(-c2cc3[nH]cc(C(=O)N4CCC[C@H](N)C4)c3cc2-c2ccc(C#N)cc2)cc1`
### Response 5.06

### Prompt For A549, give pIC50 of the listed compound: `Cc1cc(C)cc(-c2cc3[nH]cc(C(=O)N4CCC(N)CC4)c3cc2-c2ccc(C#N)cc2)c1`
### Response 5.28

### Prompt For A549, give pIC50 of the listed compound: `Cc1ccc(-c2cc3[nH]cc(C(=O)N4CCC(N)CC4)c3cc2-c2ccc(C#N)c(F)c2)cc1`
### Response 5.57

### Prompt For A549, give pIC50 of the listed compound: `Cc1ccc(-c2cc3[nH]cc(C(=O)N4CCNCC4)c3cc2-c2ccc(C#N)cc2)cc1`
### Response 5.64

### Prompt For A549, give pIC50 of the listed compound: `Cc1ccc(-c2cc3[nH]cc(C(=O)NCC4CCNCC4)c3cc2-c2ccc(C#N)cc2)cc1`
### Response 4.81

* * *

Test system: A549
Experiment: cells
Details: Homo sapiens, A549, 72 h
Documented IC50 across a set of compounds
I'd appreciate it if you wrote the number followed by its unit.

>  <smiles_repr>
Cc1ccc(-c2cc3c(cc2-c2ccc(C#N)cc2)c(C(=O)N2CCC(N)CC2)cn3S(=O)(=O)c2ccc(F)cc2)cc1

>  <assay_target>
A549

>  <IC50>
0.74 µM

$$$$
>  <smiles_repr>
Cc1ccc(-c2cc3[nH]cc(C(=O)N4CCC(N)CC4)c3cc2-c2ccc(C#N)cc2)c(F)c1

>  <assay_target>
A549

>  <IC50>
2.3 µM

$$$$
>  <smiles_repr>
Cc1ccc(-c2cc3[nH]cc(C(=O)N4CCC(N)CC4)c3cc2-c2ccc(C#N)cc2)cc1

>  <assay_target>
A549

>  <IC50>
4.2 µM

$$$$
>  <smiles_repr>
Cc1ccc(-c2cc3occ(CN4CCC[C@H](N)C4)c3cc2-c2ccc(C#N)cc2)cc1

>  <assay_target>
A549

>  <IC50>
3.6 µM

$$$$

Lab note: next compound to report on.
### Prompt Identify IC50 associated with the compound `Cc1ccc(-c2cc3c(cc2-c2ccc(C#N)cc2)c(C(=O)N2CCC(N)CC2)cn3Cc2cccc(C#N)c2)cc1`
### Response 3.4 µM
